Where these numbers come from: patent WO2018092907A1

- test-system: T1, human TNFR2 expressed on the cell membrane (membrane-type TNFR2) (human, UniProt P20333 23-461)
- T1 construct: also called TNFRSF1B; cell membrane type TNFR2
- T1 sequence: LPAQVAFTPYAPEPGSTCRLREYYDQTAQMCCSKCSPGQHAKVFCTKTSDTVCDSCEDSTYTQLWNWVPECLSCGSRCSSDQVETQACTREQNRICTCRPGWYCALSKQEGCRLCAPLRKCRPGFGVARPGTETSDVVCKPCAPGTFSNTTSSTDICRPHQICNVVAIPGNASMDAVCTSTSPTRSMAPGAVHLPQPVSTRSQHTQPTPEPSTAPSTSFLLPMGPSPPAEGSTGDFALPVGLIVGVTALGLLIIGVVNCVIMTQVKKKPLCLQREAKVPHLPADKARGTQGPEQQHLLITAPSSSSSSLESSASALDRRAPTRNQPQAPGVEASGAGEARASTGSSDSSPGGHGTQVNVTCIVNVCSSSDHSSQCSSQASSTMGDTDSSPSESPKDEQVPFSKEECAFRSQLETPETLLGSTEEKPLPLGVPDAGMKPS
- test-name: flow cytometry on cells with transient expression of TNFR2 against untreated cells

binder	binding result
humanized TR92 antibody (TR92HUVH2 + TR92HUVL2) (antibody, V domains shown, also called one of the four humanized TR92 antibodies) VH: QVQLVQSGAEVKKPGASVKVSCKASGYTFTESIIHWVRQATGQGLEWMGWFYPGSDNINYNEKFKDRVTMTRNTSISTAYMELSSLRSEDTAVYYCARHEGPYVYFDYWGQGTTVTVSS VL: DIQMTQSPSSLSASVGDRVTITCKASQDVSTAVAWYQQKPGKAPKLLIYWTSTRHTGVPSRFSGSGSGTDFTLTISSLQPEDFATYYCQHHYSTPYTFGQGTKLEIK	binds
humanized TR109 antibody (TR109HUVH2 + TR109HUVL2) (antibody, V domains shown, also called one of the four humanized TR109 antibodies) VH: QVQLQESGPGLVKPSETLSLTCTVSGYSISVYGVNWIRQPPGKGLEWIGMIWGDGSTAYNSALKSRVTISVDTSKNQFSLKLSSVTAADTAVYYCARDGRRYALDYWGQGTLVTVSS VL: EIVLTQSPATLSLSPGERATLSCRASESVDSYGDSFLHWYQQKPGQAPRLLIYRASNLDSGIPARFSGSGSGTDFTLTISSLEPEDFAVYYCQQSNEDPYTFGQGTKLEIK	binds
humanized TR109 antibody (TR109HUVH2 + TR109HUVL1) (antibody, V domains shown, also called one of the four humanized TR109 antibodies) VH: QVQLQESGPGLVKPSETLSLTCTVSGYSISVYGVNWIRQPPGKGLEWIGMIWGDGSTAYNSALKSRVTISVDTSKNQFSLKLSSVTAADTAVYYCARDGRRYALDYWGQGTLVTVSS VL: DIVMTQSPDSLAVSLGERATINCRASESVDSYGDSFLHWYQQKPGQPPKLLIYRASNLDSGVPDRFSGSGSGTDFTLTISSLQAEDVAVYYCQQSNEDPYTFGQGTKLEIK	binds
humanized TR92 antibody (TR92HUVH1 + TR92HUVL2) (antibody, V domains shown, also called one of the four humanized TR92 antibodies) VH: QVQLVQSGAEVKKPGASVKVSCKASGYTFTESIIHWVRQAPGQGLEWMGWFYPGSDNINYNEKFKDRVTMTRDTSISTAYMELSRLRSDDTAVYYCARHEGPYVYFDYWGQGTTVTVSS VL: DIQMTQSPSSLSASVGDRVTITCKASQDVSTAVAWYQQKPGKAPKLLIYWTSTRHTGVPSRFSGSGSGTDFTLTISSLQPEDFATYYCQHHYSTPYTFGQGTKLEIK	binds
humanized TR92 antibody (TR92HUVH2 + TR92HUVL1) (antibody, V domains shown, also called one of the four humanized TR92 antibodies) VH: QVQLVQSGAEVKKPGASVKVSCKASGYTFTESIIHWVRQATGQGLEWMGWFYPGSDNINYNEKFKDRVTMTRNTSISTAYMELSSLRSEDTAVYYCARHEGPYVYFDYWGQGTTVTVSS VL: DIVMTQSPDSLAVSLGERATINCKASQDVSTAVAWYQQKPGQPPKLLIYWTSTRHTGVPDRFSGSGSGTDFTLTISSLQAEDVAVYYCQHHYSTPYTFGQGTKLEIK	binds
humanized TR92 antibody (TR92HUVH1 + TR92HUVL1) (antibody, V domains shown, also called one of the four humanized TR92 antibodies) VH: QVQLVQSGAEVKKPGASVKVSCKASGYTFTESIIHWVRQAPGQGLEWMGWFYPGSDNINYNEKFKDRVTMTRDTSISTAYMELSRLRSDDTAVYYCARHEGPYVYFDYWGQGTTVTVSS VL: DIVMTQSPDSLAVSLGERATINCKASQDVSTAVAWYQQKPGQPPKLLIYWTSTRHTGVPDRFSGSGSGTDFTLTISSLQAEDVAVYYCQHHYSTPYTFGQGTKLEIK	binds
humanized TR109 antibody (TR109HUVH1 + TR109HUVL1) (antibody, V domains shown, also called one of the four humanized TR109 antibodies) VH: QVQLQESGPGLVKPSGTLSLTCAVSGGSISVYGVNWVRQPPGKGLEWIGMIWGDGSTAYNSALKSRVTISVDKSKNQFSLKLSSVTAADTAVYYCARDGRRYALDYWGQGTLVTVSS VL: DIVMTQSPDSLAVSLGERATINCRASESVDSYGDSFLHWYQQKPGQPPKLLIYRASNLDSGVPDRFSGSGSGTDFTLTISSLQAEDVAVYYCQQSNEDPYTFGQGTKLEIK	binds
humanized TR109 antibody (TR109HUVH1 + TR109HUVL2) (antibody, V domains shown, also called one of the four humanized TR109 antibodies) VH: QVQLQESGPGLVKPSGTLSLTCAVSGGSISVYGVNWVRQPPGKGLEWIGMIWGDGSTAYNSALKSRVTISVDKSKNQFSLKLSSVTAADTAVYYCARDGRRYALDYWGQGTLVTVSS VL: EIVLTQSPATLSLSPGERATLSCRASESVDSYGDSFLHWYQQKPGQAPRLLIYRASNLDSGIPARFSGSGSGTDFTLTISSLEPEDFAVYYCQQSNEDPYTFGQGTKLEIK	binds
